# measurement-target: TDP43 RRM1 (UniProt Q13148 101-192)
# Sequence (Q13148 101-192): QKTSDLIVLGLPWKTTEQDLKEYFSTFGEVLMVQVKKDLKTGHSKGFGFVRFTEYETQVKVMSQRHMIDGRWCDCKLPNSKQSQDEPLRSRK
# assay-explanation: CG-MALS
readout: pKd
By convention, pKd is the negative base-10 log of a molar concentration.

# lookup: pKd of TGTGTGTGTGTG (ssDNA) [(TG)6 ssDNA]
4.98

Numbers sourced from paper PMC11447847.
